Data origin, for the record: patent US7935687B2

Here's a batch of molecules along with measured MIC for S. aureus (SA RN450).

CCN(CC)CCNC(=O)c1cccc(-c2ccc(O)c3c2C[C@H]2C[C@H]4[C@H](N(C)C)C(O)=C(C(N)=O)C(=O)[C@@]4(O)C(O)=C2C3=O)c1 [Compound E]    < 4 µg/mL
CCOC(=O)CCNC(=O)c1cccc(-c2ccc(O)c3c2C[C@H]2C[C@H]4[C@H](N(C)C)C(O)=C(C(N)=O)C(=O)[C@@]4(O)C(O)=C2C3=O)c1 [Compound I]    < 4 µg/mL
CN(C)CC(=O)Nc1cccc(-c2ccc(O)c3c2C[C@H]2C[C@H]4[C@H](N(C)C)C(O)=C(C(N)=O)C(=O)[C@@]4(O)C(O)=C2C3=O)c1 [Compound K]    < 4 µg/mL

Please go through the list and note MIC for each molecule.
1. CN(C)CCNC(=O)c1cccc(-c2ccc(O)c3c2C[C@H]2C[C@H]4CC(O)=C(C(N)=O)C(=O)[C@@]4(O)C(O)=C2C3=O)c1 [Compound Z]
2. CN(C)CCCCNCc1ccc(O)c2c1C[C@H]1C[C@H]3[C@H](N(C)C)C(O)=C(C(N)=O)C(=O)[C@@]3(O)C(O)=C1C2=O [Compound CN]
3. CN(C)CCNC(=O)c1cccc(-c2cc(N(C)C)c3c(c2O)C(=O)C2=C(O)[C@]4(O)C(=O)C(C(N)=O)=C(O)[C@@H](N(C)C)[C@@H]4C[C@@H]2C3)c1 [Compound V]

1: > 8 µg/mL; 2: > 8 µg/mL; 3: > 8 µg/mL
